Data origin, for the record: patent US9127001B2

test.system: Human TASK-1 channels (Homo sapiens (Human))
method.summary: Activity on the TASK-1 channel in Xenopus oocytes (two-microelectrode voltage clamp)
condition.label: human TASK-1 expressed in Xenopus oocytes, currents during pulses to 40 mV, room temperature
experimental.endpoint: IC50 (nM)

Some compounds with known IC50 results, for comparison:
# compound, IC50, nM
records = [
    ("CS(=O)(=O)c1ccc(C(=O)N2CCc3c(c(-c4cccc(C#N)c4)nn3Cc3ccc(F)cc3F)C2)cc1", 906),
    ("CC(=O)N1CCc2c(c(-c3cncc(Br)c3)nn2Cc2ccc(F)cc2F)C1", 2440),
]

(1) CC(=O)N1CCc2c(c(-c3cccc(C(F)(F)F)c3)nn2Cc2ccc(C#N)cc2)C1
(2) N#Cc1cccc(-c2nn(Cc3ccc(F)cc3F)c3c2CN(C(=O)C2CC2)CC3)c1
(3) N#Cc1cccc(-c2nn(Cc3ccc(F)cc3F)c3c2CN(C(=O)c2ccccn2)CC3)c1
(4) CC(=O)N1Cc2c(-c3ccc(F)cc3)nn(Cc3ccc(F)cc3F)c2CC1C (centres unmarked)
(5) CC(=O)N1CCc2c(c(-c3cccc(C(F)(F)F)c3)nn2Cc2ccc(Cl)nc2)C1
List from greatest to least IC50. Please write the labels in the order that was asked for.
4, 3, 5, 1, 2
(4: 511 nM, 3: 246 nM, 5: 172 nM, 1: 114 nM, 2: 47 nM)

====

test.system: Human TASK-1 channels (Homo sapiens (Human), UniProt O14649)
Sequence (O14649 whole entry): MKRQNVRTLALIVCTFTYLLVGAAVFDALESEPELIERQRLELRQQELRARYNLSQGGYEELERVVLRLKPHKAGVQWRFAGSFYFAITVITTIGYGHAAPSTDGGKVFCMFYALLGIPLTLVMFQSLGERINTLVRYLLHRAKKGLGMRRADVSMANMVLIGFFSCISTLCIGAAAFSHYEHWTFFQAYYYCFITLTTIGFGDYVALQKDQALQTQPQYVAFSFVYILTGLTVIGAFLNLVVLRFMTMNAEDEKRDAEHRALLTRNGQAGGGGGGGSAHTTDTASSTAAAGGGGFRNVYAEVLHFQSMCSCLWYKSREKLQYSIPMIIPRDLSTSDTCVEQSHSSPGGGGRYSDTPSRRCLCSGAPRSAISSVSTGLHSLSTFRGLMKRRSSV
method.summary: Activity on the TASK-1 channel in Xenopus oocytes (two-microelectrode voltage clamp)
condition.label: human TASK-1 expressed in Xenopus oocytes, currents during pulses to 40 mV, room temperature
experimental.endpoint: IC50 (µM)

The following compounds have reported results that may help.
# compound, IC50 (µM)
measured = [
    ("CC(=O)N1C2CCC1c1c(-c3cccc(C#N)c3)nn(Cc3ccc(F)cc3F)c1C2 (stereo not shown) [Example 6n]", 0.091),
    ("CC(c1ccc(F)cc1)n1nc(-c2ccc(F)cc2)c2c1CCN(C(=O)N1CC[C@H](O)C1)C2 (single isomer, unassigned) [Example 12c]", 0.734),
    ("CS(=O)(=O)c1cccc(C(=O)N2CCc3c(c(-c4cccc(C#N)c4)nn3Cc3ccc(F)cc3F)C2)c1 [Example 8e]", 1.62),
    ("N#Cc1cccc(-c2nn(Cc3ccc(F)cc3F)c3c2CN(C(=O)C2CCCC2)CC3)c1 [Example 8j]", 0.722),
    ("Cn1ccc(C(=O)N2CCc3c(c(-c4cccc(C#N)c4)nn3Cc3ccc(F)cc3F)C2)n1 [Example 8x]", 1.88),
    ("CC(=O)N1CCc2c(c(-c3ccc(F)cc3)nn2C(C)c2ccc(F)cc2)C1 (single isomer, unassigned; (+)) [Example 6be]", 0.5),
    ("CC(=O)N1CCc2c(c(-c3ccc(C(F)(F)F)cc3)nn2Cc2ccc(F)cc2F)C1 [Example 6bk]", 1.15),
    ("N#Cc1cccc(-c2nn(Cc3ccc(F)cc3F)c3c2CN(C(=O)c2ccncn2)CC3)c1 [Example 8v]", 0.864),
]

(A) CC(=O)N1CCc2c(c(-c3ccc(F)cc3)nn2C(C)c2ccc(F)cc2)C1 (stereo not shown) [Example 6ar]
(B) CC(=O)N1CCc2c(c(-c3ccc(F)cc3)nn2Cc2c(F)cccc2F)C1 [Example 6aq]
(C) Cn1cncc1C(=O)N1CCc2c(c(-c3cccc(C#N)c3)nn2Cc2ccc(F)cc2F)C1 [Example 8w]
(D) CC(=O)N1CCc2c(c(-c3cccc(C(F)(F)F)c3)nn2Cc2cnccc2Cl)C1 [Example 6c]
Order each entry by recorded IC50, climbing from the minimum. # the answer lists labels in the order requested
D, B, A, C
(D: 0.215 µM, B: 0.359 µM, A: 0.552 µM, C: 1.15 µM)

(P) CC(=O)N1CCc2c(c(-c3cccc(F)c3)nn2Cc2ccc(F)cc2F)C1 [Example 6bj]
(Q) CC(=O)N1CCc2c(c(-c3ccc(Cl)s3)nn2Cc2ccc(F)cc2F)C1 [Example 6ak]
# argmax over IC50 for candidates P and Q State your choice using its label.
P
(P: 1.16 µM, Q: 0.27 µM)
